Organism: Homo sapiens
experiment.summary: Inhibition of alpha chymotrypsin (unknown origin) at 25 uM using Ac-GRPY-pNA by spectrophotometry method
Bridge positions count the residues as written; N and C are the ends. Peptide text beside a SMILES is read from it.
attribute.measured: inhibition (%)
Please give a number only; it is taken to be in %.

Check out these entries, answers already filled in.
CC[C@H](C)[C@@H]1NC(=O)[C@@H]2CCCN2C(=O)[C@@H]2CCCN2C(=O)[C@H](Cc2ccccc2)NC(=O)[C@H](CO)NC(=O)[C@H](CCCNC(=N)N)NC(=O)[C@H]([C@@H](C)O)NC(=O)[C@@H]2CSSC[C@H](NC1=O)C(=O)N[C@@H](CC(N)=O)C(=O)N1CCC[C@H]1C(=O)N[C@@H](CC(N)=O)C(=O)NCC(=O)N[C@@H]([C@@H](C)O)C(=O)N2 (cyclo(CNPNGTCTRSFPPI); disulfide 1-7); 52
CC[C@H](C)[C@@H]1NC(=O)[C@@H]2CCCN2C(=O)[C@@H]2CCCN2C(=O)[C@H]([C@@H](C)CC)NC(=O)[C@H](CO)NC(=O)[C@H](CCCNC(=N)N)NC(=O)[C@H]([C@@H](C)O)NC(=O)[C@@H]2CSSC[C@H](NC1=O)C(=O)N[C@@H](CC(N)=O)C(=O)N1CCC[C@H]1C(=O)N[C@@H](CC(N)=O)C(=O)NCC(=O)N[C@@H]([C@@H](C)O)C(=O)N2 (cyclo(CNPNGTCTRSIPPI); disulfide 1-7); 60
CC[C@H](C)[C@@H]1NC(=O)[C@@H]2CCCN2C(=O)[C@@H]2CCCN2C(=O)[C@H](C(C)C)NC(=O)[C@H](CO)NC(=O)[C@H](CCCNC(=N)N)NC(=O)[C@H]([C@@H](C)O)NC(=O)[C@@H]2CSSC[C@H](NC1=O)C(=O)N[C@@H](CC(N)=O)C(=O)N1CCC[C@H]1C(=O)N[C@@H](CC(N)=O)C(=O)NCC(=O)N[C@@H]([C@@H](C)O)C(=O)N2 (cyclo(CNPNGTCTRSVPPI); disulfide 1-7); 76

Next molecule, please.
Value lookup for inhibition; key = CC[C@H](C)[C@@H]1NC(=O)[C@@H]2CCCN2C(=O)[C@@H]2CCCN2C(=O)[C@H](CCCNC(=N)N)NC(=O)[C@H](CO)NC(=O)[C@H](CCCNC(=N)N)NC(=O)[C@H]([C@@H](C)O)NC(=O)[C@@H]2CSSC[C@H](NC1=O)C(=O)N[C@@H](CC(N)=O)C(=O)N1CCC[C@H]1C(=O)N[C@@H](CC(N)=O)C(=O)NCC(=O)N[C@@H]([C@@H](C)O)C(=O)N2 (cyclo(CNPNGTCTRSRPPI); disulfide 1-7)
57
